Test system: thrombocyte aggregation in platelet-rich plasma of healthy human donors
Experiment: Thrombocyte aggregation inhibiting activity by the method of Born and Cross (platelet-rich plasma)
Type: cell-based
Conditions: ADP-induced (about 1×10^-6 mol/l), optical density, read-out: EC50 (50% inhibition of thrombocyte aggregation), ADP
Experimental: 1. Determination of the thrombocyte aggregation inhibiting activity by the method of Born and Cross [J. Physiol. 170, 397 (1964)]: The thrombocyte aggregation was measured in the platelet-rich plasma of healthy human donors. The decrease in optical density was measured and recorded photometrically after the addition of adenosine diphosphate or collagen. From the angle of inclination of the density curve, the rate of aggregation was estimated (Vmax). […]
We begin with a simple list: items and their reported EC50.
The response must be a number in µM with no trailing unit.

Worked examples follow.
{"Compound": "O=C1CCc2cc(OCCCC[S+]([O-])c3ccc(Cl)cc3)ccc2N1 (stereo not shown) [I]", "EC50 (µM)": 10}
{"Compound": "O=C1CCc2cc(OCCCCS(=O)(=O)c3ccccn3)ccc2N1 [F]", "EC50 (µM)": 20}

Query: EC50; subject: O=C1CCc2cc(OCCCC[S+]([O-])c3ccc4ccccc4c3)ccc2N1 (stereo not shown) [L]
10

Same read-out for O=C1CCc2cc(OCCCC[S+]([O-])c3cc(Cl)ccc3Cl)ccc2N1 (stereo not shown) [S] ?
10
